B1: library; a variant is named by its letters at N, in order (parent)
chain: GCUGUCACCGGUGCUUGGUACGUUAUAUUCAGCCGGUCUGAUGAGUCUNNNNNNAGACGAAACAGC

- Variants of: B1
- protocol_details: FACS-Seq fitted mean relative fluorescence mCherry/BFP with ligand (log10 relative fluorescence); HEK293T overexpressing SLC46A1; ligand concentration (+) FACS-Seq: 6 mM; higher = higher reporter protein expression
- test_parameters: with (6R,S)-folinic acid; ligand present: yes
For each entry below, report its FACS-Seq fitted mean (log10) value.
Numbers only.

| mutation_annotation | FACS-Seq fitted mean (log10) |
| --- | --- |
| GGAAAG | 0.123 |
| UAUGAU | 0.486 |
| AAUACC | 0.469 |
| AACGUG | 0.715 |
| GCCUUA | -0.0974 |
| GAUUCU | -0.0821 |
| AAGGUC | 0.178 |
| CGCUGC | -0.0623 |
| GGAAAC | 0.243 |
| UUGGAG | 0.315 |

Quick request: FACS-Seq fitted mean (log10) for each listed item, please.
1. GUGGGA
2. GACAAC
3. CACGAU
4. GGGUUG
5. CGGAAU
6. AACGCC
7. GACAUU

-- reply
[-0.94, 0.472, 0.334, 0.56, 0.208, 0.336, 0.529]
